biological target: MASP-2 (CCP1-CCP2-SP) (Homo sapiens (Human), UniProt O00187); experiment: biochemical; type: biochemical; details: selectivity for MASP-2 inhibition versus thrombin
Sequence (O00187 445-686): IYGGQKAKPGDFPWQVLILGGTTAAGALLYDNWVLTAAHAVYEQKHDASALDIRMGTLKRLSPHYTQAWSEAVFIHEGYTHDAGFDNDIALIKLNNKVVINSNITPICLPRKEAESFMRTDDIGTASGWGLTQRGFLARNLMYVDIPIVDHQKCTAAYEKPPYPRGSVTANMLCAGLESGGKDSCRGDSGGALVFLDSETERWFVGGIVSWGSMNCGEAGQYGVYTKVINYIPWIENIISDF
Where a name gives a salt, the structure may show the parent alone.
observation.type: MASP-2 vs. thrombin selectivity

Some molecules with recorded MASP-2 vs. thrombin selectivity:
Cc1nc(N)ccc1CNC(=O)Cn1c(C)cnc(NCCc2ccccc2)c1=O; −− (<1.0-fold)
Cc1nc(N)ccc1CNC(=O)[C@H](C)NC(=O)[C@H]1C[C@H](Cc2cccc(Cl)c2)CN1 [compound 1328, Dihydrochloride]; **** (≥100-fold)
Cc1nc(N)ccc1CNC(=O)[C@H](C)NC(=O)[C@H]1C[C@H](Cc2ccc(C)c3ccccc23)CN1 [compound 1479, Dihydrochloride]; **** (≥100-fold)
C[C@H](NC(=O)[C@H]1C[C@H](Cc2cccc3ccccc23)CN1)C(=O)NCc1cc(Cl)ccc1-n1cnnn1 [compound 1414, Hydrochloride]; −− (<1.0-fold)

The record that follows has no MASP-2 vs. thrombin selectivity shown yet.
I would be grateful if you could share the reported MASP-2 vs. thrombin selectivity for `C[C@H](NC(=O)[C@H]1C[C@@H](c2ccccc2)CCN1)C(=O)NCc1cnc2[nH]cc(Cl)c2c1` .
**** (≥100-fold)
